Each item that follows carries a reported cell viability.
test system: NOMO1; assay: cell viability relative to DMSO control; higher = less cytotoxic; settings: HPLM + 10% dialyzed FBS; 48 h; 0.00702 µM
Give your result as the value with the unit written after it.

Answered cases to consult:
[
  {
    "molecule": "CCN1CCN(c2ccc(Nc3cc(N(C)C(=O)Nc4c(Cl)c(OC)cc(OC)c4Cl)ncn3)cc2)CC1",
    "endpoint-label": "cell viability",
    "test-result": "124%"
  },
  {
    "molecule": "CC(C)c1ccc2c(c1)c(SC(C)(C)C)c(CC(C)(C)C(=O)[O-])n2Cc1ccc(Cl)cc1",
    "endpoint-label": "cell viability",
    "test-result": "110%"
  },
  {
    "molecule": "CN(C)[S+](=O)([O-])c1ccc2c(c1)C(=Cc1cc3c([nH]1)CCCC3)C(=O)N2",
    "endpoint-label": "cell viability",
    "test-result": "122%"
  }
]

Lab note: next molecule to report on.
Specify measured cell viability for COc1ccccc1OCC(O)COC(N)=O (centres undefined) .
108%
